Biological target: the molecule itself
Assay: AUC
pKd: −log10 of the molar value.
Here the recorded pKd is given for each entry.

- PROTEIN: "cadherin-7 EC1-EC2 adhesive fragment (mouse), wild-type (domain or fragment) SWVWNQFFVLEEYMGSDPLYVGKLHSDVDKGDGSIKYILSGEGASSIFIIDENTGDIHATKRLDREEQAYYTLRAQALDRLTNKPVEPESEFVIKIQDINDNEPKFLDGPYTAGVPEMSPVGTSVVQVTATDADDPTYGNSARVVYSILQGQPYFSVEPKTGVIKTALPNMDREAKDQYLLVIQAKDMVGQNGGLSGTTSVTVTLTD"
  pKd: 4.49
- PROTEIN: "cadherin-6 EC1-EC2 adhesive fragment (mouse), wild-type (domain or fragment) SWMWNQFFLLEEYTGSDYQYVGKLHSDQDRGDGSLKYILSGDGAGDLFIINENTGDIQATKRLDREEKPVYILRAQAVNRRTGRPVEPESEFIIKIHDINDNEPIFTKDVYTATVPEMADVGTFVVQVTATDADDPTYGNSAKVVYSILQGQPYFSVESETGIIKTALLNMDRENREQYQVVIQAKDMGGQMGGLSGTTTVNITLTD"
  pKd: 5.51
- PROTEIN: "cadherin-24 EC1-EC3 fragment (mouse), wild-type (domain or fragment) SWVWNQFFVIEEYSGPEPVLIGKLHSDVDRGEGRTKYLLTGEGAGTVFVIDEATGNIHVTKSLDREEKAQYVLLAQAVDRASNRPLEPPSEFIIKVQDINDNPPVFPLGPYHATVPEMSNVGTSVIQVTAHDADDPSYGNSAKLVYTVLDGLPFFSVDPQTGVVRTAIPNMDRETQEEFLVVIQAKDMGGHMGGLSGSTTVTVTLSDVNDNPPKFPQSLYQFSVVETAGPGTLVGRLKAQDPDLGDNALVAYSILNGEGSEVFSISTDSQGQDGLLTVRKPLDFETRRSYTFRVEATNTLIDPAYLRRGPFKDVASVRVTVQDAPEPPAF"
  pKd: 5.09
- PROTEIN: "cadherin-22 EC1-EC2 adhesive fragment (mouse), wild-type (domain or fragment) GWVWNQFFVVEEYTGTEPLYVGKIHSDSDEGDGTIKYTISGEGAGTIFLIDELTGDIHATERLDREQKTFYTLRAQARDRATNRLLEPESEFIIKVQDINDSEPRFLHGPYIGSVAELSPTGTSVMQVMASDADDPTYGSSARLVYSVLDGEHHFTVDPKTGVIRTAVPDLDRESQERYEVVIQATDMAGQLGGLSGSTTVTIVVTD"
  pKd: 5.41
- PROTEIN: "cadherin-8 EC1-EC3 fragment (mouse), wild-type (domain or fragment) GWVWNQMFVLEEFSGPEPILVGRLHTDLDPGSKKIKYILSGDGAGTIFQINDITGDIHAIKRLDREEKAEYTLTAQAVDFETNKPLEPPSEFIIKVQDINDNAPEFLNGPYHATVPEMSILGTSVTNVTATDADDPVYGNSAKLVYSILEGQPYFSIEPETAIIKTALPNMDREAKEEYLVVIQAKDMGGHSGGLSGTTTLTVTLTDVNDNPPKFAQSLYHFSVPEDVVLGTAIGRVKANDQDIGENAQSSYDIIDGDGTALFEITSDAQAQDGVIRLRKPLDFETKKSYTLKVEAANIHIDPRFSSRGPFKDTATVKIVVEDADEPPVF"
  pKd: 4.82
